# protocol notes: in vivo pharmacokinetic studies in mice (Example 1)
# Design: species or system mouse
# test settings: male, CD-1, mouse, in vivo, po, 10 mg/kg, intact prodrug, brain; mice, 10 mg/kg eqv; read-out: Cmax
experimental endpoint: Cmax (nM)
Expressed in nM, but write only the number.

**Q:** Fill blank: measured Cmax of the compound COc1cc(-c2nc(-c3ccccc3)c(-c3cccs3)[nH]2)cc(OC)c1OC(=O)N1CCC(N2CCCCC2)CC1 [Compound P1] is ____.
**A:** 106

* * *

# protocol notes: in vivo pharmacokinetic studies in mice (Example 1)
# Design: species or system mouse
# test settings: male, CD-1, mouse, in vivo, po, 10 mg/kg, intact prodrug, brain; mice, 10 mg/kg eqv
experimental endpoint: half-life
Quick note: number first, unit second.

**Q:** Please look up its half-life: COc1cc(-c2nc(-c3ccccc3)c(-c3cccs3)[nH]2)cc(OC)c1OC(=O)N1CCC(N2CCCCC2)CC1 [Compound P1]
**A:** 4.37 h
